- System: Monoclonal Ab #2 (monoclonal antibody to taxol)
- procedure summary: Indirect competitive microtiter plate immunoassay (ELISA), Monoclonal Ab #2
- Format: binding, mice
- condition context: plate sensitized with Taxol Derivative 5
experimental endpoint: Cross-reactivity relative to taxol

• CC(=O)O[C@H]1C(=O)[C@@]2(C)[C@H]([C@H](OC(=O)c3ccccc3)[C@]3(O)C[C@H](OC(=O)[C@H](O)[C@@H](NC(=O)c4ccccc4)c4ccccc4)C(C)=C1C3(C)C)[C@]1(OC(C)=O)CO[C@@H]1[C@@H](O)[C@@H]2O [6-α-Hydroxypaclitaxel, 6-α-hydroxypaclitaxel] = ≦4.6%
• CC(=O)O[C@H]1C(=O)[C@@]2(C)[C@H]([C@H](OC(=O)c3ccccc3)[C@]3(O)C[C@H](OC(=O)[C@H](O)[C@@H](NC(=O)c4ccccc4)c4ccc(O)cc4)C(C)=C1C3(C)C)[C@]1(OC(C)=O)CO[C@@H]1C[C@@H]2O [3′-p-Hydroxypaclitaxel, 3′-p-hydroxypaclitaxel] = ≦2.3%
• CC(=O)O[C@@]12CO[C@@H]1C[C@H](O)[C@@]1(C)C(=O)[C@H](O)C3=C(C)[C@@H](OC(=O)[C@H](O)[C@@H](NC(=O)OC(C)(C)C)c4ccccc4)C[C@@](O)([C@@H](OC(=O)c4ccccc4)[C@H]21)C3(C)C [Docetaxel] = 101%

---

Please go through the items and note down their Cross-reactivity relative to taxol.
- Test system: Monoclonal Ab #1 (monoclonal antibody to taxol)
- procedure summary: Indirect competitive microtiter plate immunoassay (ELISA), Monoclonal Ab #1
- Type: binding, mice
- condition context: plate sensitized with Taxol Derivative 5
- Method: The assay was performed by incubating 50 μL of the analytes to be measured with 50 μL of antibody (produced in example 4) diluted to a titer determined in example 8a. […] Following the incubation for color development, 50 μL of stop solution (1.5% sodium fluoride in di H2O) was added to each well to stop the color development and after 10 seconds of shaking the absorbance was determined at 650 nm (Molecular Devices Plate Reader). […]
Give bare numbers, in %.

// below: answered compounds
• CC(=O)O[C@@]12CO[C@@H]1C[C@H](O)[C@@]1(C)C(=O)[C@H](O)C3=C(C)[C@@H](OC(=O)[C@H](O)[C@@H](NC(=O)OC(C)(C)C)c4ccccc4)C[C@@](O)([C@@H](OC(=O)c4ccccc4)[C@H]21)C3(C)C [Docetaxel] = 76
• CC(=O)O[C@H]1C(=O)[C@@]2(C)[C@H]([C@H](OC(=O)c3ccccc3)[C@]3(O)C[C@H](O)C(C)=C1C3(C)C)[C@]1(OC(C)=O)CO[C@@H]1C[C@@H]2O [Baccatin III] = 0.13
• CC(=O)O[C@H]1C(=O)[C@@]2(C)[C@H]([C@H](OC(=O)c3ccccc3)[C@]3(O)C[C@H](OC(=O)[C@H](O)[C@@H](NC(=O)c4ccccc4)c4ccc(O)cc4)C(C)=C1C3(C)C)[C@]1(OC(C)=O)CO[C@@H]1C[C@@H]2O [3′-p-Hydroxypaclitaxel, 3′-p-hydroxypaclitaxel] = 5.9

**Q:** Tell me the measured Cross-reactivity relative to taxol of CC(=O)O[C@H]1C(=O)[C@@]2(C)[C@H]([C@H](OC(=O)c3ccccc3)[C@]3(O)C[C@H](OC(=O)[C@H](O)[C@@H](NC(=O)c4ccccc4)c4ccccc4)C(C)=C1C3(C)C)[C@]1(OC(C)=O)CO[C@@H]1[C@@H](O)[C@@H]2O [6-α-Hydroxypaclitaxel, 6-α-hydroxypaclitaxel] , please.
**A:** 5.1
